assay summary: yeast display, Sf9 membrane polyspecificity reagent, FACS + sequencing; frameworks hold sequencing errors
measure: polyreactivity (PSR sort gate)

1. QVQLVESGGGLVQAGGSLRLSCAASGITFRVYVMGGYRQAPGKERELVAAITSGTSTYYADSVKGRFTISRDNAKNTVYLQMNSLKPEDTAVYYCAADWDLFYAVVGFDFDYWGQGTQVTVSS	low polyreactivity
2. QVQLVESGGGLVQAGGSLRLSCAASGSTFPPYVMGWYRQAPGKERELVAAITWSSGSTYYADSVKGRFTISRDNAKNTVYLQMNSLKPEDTAVYYCAAKWLGYGFDYWGQGTQVTVSS	low polyreactivity
3. QVQLVESGGGLVQAGGRLRLSCAASGNIFHYNAMGGSRQAPGKERELVAAITWSGGNTYYADSVKGRFTISRDNAKNTVYLQLNSLKPEDTAVYYCAAEFPQRATGGRYKTEYDYWGQGTQVTVSS	low polyreactivity

----------
assay summary: yeast display, Sf9 membrane polyspecificity reagent, FACS + sequencing; frameworks hold sequencing errors
measure: polyreactivity (PSR sort gate)

1. QVQLVESGGGLVQAGGSLRLTCAASGRTFRQYAMGWYRQAPGKERELVAAIRTNGGRTYYADSVKGRFTISRDYAKNTVYLQFNSLKPEDTAVYYCAVYAVVQGVLFDYWGQGTQVTVSS	high polyreactivity
2. QVQLVESGGGLVQAGGSLRLSCAASGLIFAVYAMGWYRQAPGKERELVAGISASAASTYYADSVKGRFTISRDNAKNTVYLQMNSLKPEDTAVYYCAADFYWFWTYGTLWYGYEYWGQGTQVTVSS	high polyreactivity
3. QVQLVESGGGLVQAGGSLRLSCAASGIIFDTYVMGWYRQAPGKERELVAAITRSGGRTRYADSVKGRFTISRDNAKNTVYLQMNSLKPEDTAVYYCAARIPDRQDGYGYWGQGTQVTVSS	high polyreactivity
4. QVQLVESGGGLVQAGGSLRLTCADSGSIFYYYGMGWYRQAPGKERELVASITQSGVSTYYADSVKGRFTISRDNANNSVYLQMNSLKPEYTAVYYCAAGTVSGVDYWGQGTQVTVSS	high polyreactivity

----------
assay summary: yeast display, Sf9 membrane polyspecificity reagent, FACS + sequencing; frameworks hold sequencing errors
measure: polyreactivity (PSR sort gate)

1) QVQHVESGGGLVQAGGSLRLSCAASGRTFQLYDMGWYRQPHGKDRELVAGITITGGSTYYADSVKGRFTISRDIAKNTVYIQMISLKPEDTAVYYCAARKARPPFPHPFDYYWGQGTQVTVSS	low polyreactivity
2) PVQLVESGGVLVQAGGSLRLSCAASGITFWDKAMGWYRQPPGKERELVAAITSGNTDYADSVKGRFTISRDNAKNSVYLPMTSLIPEDTAVYYCGAELLVGGGVTVDYWGQGTQVTVSS	low polyreactivity

----------
assay summary: yeast display, Sf9 membrane polyspecificity reagent, FACS + sequencing; frameworks hold sequencing errors
measure: polyreactivity (PSR sort gate)

1) QVQLVESGGGLVQAGGSLRLSCAASGSTFRKDAMGWYRQAPGKERELVAAISSSGGDTYYADSVKGRFTISRDNAKNTVYLQMNSLKPEDTAVYYCNTKRPYRVYFRYGYWGQGTQVTVSS	high polyreactivity
2) QVQLVESGGGLVQAGGSLRLSCAASGITFGANTMGWYRQAPGKERELVADITVTGDGTYYADSVKGRFTISRDNAKNTVYLQMNSLKPEDTAVYYCAADFWLVSFQWDFEYDYWGQGTQVTVSS	low polyreactivity
3) QVQLVESGGGLVQAGGSLRLSCAASGRTFRVYAMGWDRQAPGKERELVAAISGRGGSTYYADSVKGRFSISRDNAMNTVYLQMNSLKPEDTAVDYCAKSNPYLRLGEGNYWGQGTQVTVSS	high polyreactivity
4) QVQLVESGGGLVQAGGSLRLSCAASGSIFGIYAMGWYRQAPGKERELVAAIRRGGSTYYADSVKGRFTISRDNAKNTVYLQMNSLKPEDTAVYYCAARKYRLWGKGVDYDYWGQGTQVTVSS	high polyreactivity

Name the reported polyreactivity (PSR sort gate) value associated with the sequence "QVQLVESGGGLLQAGGSLRLSCAASGGTFTWYAMGWYRQAPGKERELVAAISSDGSTYYADSVKGRFTISRDNAKNTVYLQMNSLKPEDTAVYYCAAYSSWGGFDYWGQGTQVTVSS"
low polyreactivity

----------
assay summary: yeast display, Sf9 membrane polyspecificity reagent, FACS + sequencing; frameworks hold sequencing errors
measure: polyreactivity (PSR sort gate)

1. QVQLVESGGGLVQAGGSLRLSCAASGRIFSRYAMGWYRQAPVKERELVADITYNGGSTYYADSVKGRFTISRDNAKHTVYLQMNSLQPDDTAVYYCNAVEVLDEGWGFWYYYWGQATQVTVSS	high polyreactivity
2. QVQLVESGGGLLQAGGSLRLSCAASGRTFKSYTMGWYRQAPGKERELVAAIRASGGITYYADSVKGRFTISRDNAKNTVYLQMNSLKPEDTAVYYCAARPRTRYDYWGQGTQVTVSS	high polyreactivity

----------
assay summary: yeast display, Sf9 membrane polyspecificity reagent, FACS + sequencing; frameworks hold sequencing errors
measure: polyreactivity (PSR sort gate)

Previously resolved entries follow.
1. QVQLVESGGGLVQAGGSLRLSCAASGGILVGYALGWYRQAPGKERELVAAITSTGSTYYADSVKGRFTISRDNAKNTVYLQMNSLKPEDTAVYYCNAIGLHRYDYWGQGTQETVSS	low polyreactivity
2. QVQLVESGGGLVQAGGSLRLSCAASGSTLHVYVMGWYRQAPGKERELVAAISYSGGITYYADSVKGRFTISRDNAKNTVYLQMNSLKPEDTAVYYCAARIISYRVRGKSRHDYWGQGTQVTVSS	low polyreactivity
3. QVQLVESGGGLVQAGGSLRLSCAASGSTFHLYTMGWSRQAPGKERELVAGISRRGGTTYYADSVKGRFTISRDNAKNTVYLQMNSLKPEDTAVYYCAAVYRTYGIGPNNYWGQGTQVTVSS	high polyreactivity
4. QVQLVESGGGLVQAGGSLRLSCAASGRIFRYNAMGWYRQAPGKGRELVAAITWDGGSTYYADSVKGRFTISRDNAKYTVYLQMNSLKPEYTAVYYCKAVTRSYYSDYYWGQGTQVTVSS	high polyreactivity
5. QVKLVESGGGLVQAGGSLRLSCAASGSIFSRNTMGWSRQEPGKERELVAGISSSGSRTYYADSVKGRFTISRDNAKNTVYLQMNSLKPEDTAVYYCAKAWPDHWYSRYDYWGQGTQLTVSS	low polyreactivity

Name the reported polyreactivity (PSR sort gate) value associated with the sequence "QVQLQESGGGLVHAGGSLRLSCAASGTISFINMMGWYRQAAGRERELVASINFGANTNYADSVKGRFTISRDNAKNTVYLQMNSLKPEDTAVYYCAVYDFDAYTLYYWGQGTLVTVSS"
high polyreactivity

Can you handle "HVQLVESGGGLVQAGGSLRFSCAASGFIFTNYAMGWYRQAPGTERELVAAISFSGSSTYYADSVKGRFTISRDNAKNTVYLQMNSLNPEDTAVYYCAVDGVPSSFSHDYWGQGTKVTVSS" next?
low polyreactivity

Can you handle "QVQLVESGGGLVQAGGSLRLSCAASGFIFRRYAMGWYRQAPGKERELVAAINYSGGSTYYADSVKGRFTISRDNAKNTVSLQMNSLKPEDTSVYYCNAFGLRYYEYDYWGQGTQVTVSS" next?
low polyreactivity

Can you handle "QVQLVESGGGLVQAGGSLRLSCAASGFTFRFYAMGWYRQAPGKERELVAAISRSGGDTYYADSVKGRFTISRDNAKNTVYLQRNRLIPEDTAVYYCNKATYRVAGRDFDYWGQGTQVTVSS" next?
high polyreactivity

Can you handle "QVQLVESGGGLVQAGGSLRLSCAASGFTIRRYAMGWYRQAPGKERELVAAITTGGSTYYADSVKGRFTISRDNAKNTVYLQMNSLKPEDTAVYYCAALYPYKQYRLGYDSWGQGTQVTVSS" next?
high polyreactivity

Can you handle "QVQLVESGGGLVQAGGSLRLSCAASGFIFRAYAMGWYRQAPGKERELVAAISWRGTSTYYADSVKGRFTISRDNAKNTVYLQMNSLKPEDTAVYYCARRRYLPFSRSQGSEDYWGQGTQVTVSS" next?
high polyreactivity

----------
assay summary: yeast display, Sf9 membrane polyspecificity reagent, FACS + sequencing; frameworks hold sequencing errors
measure: polyreactivity (PSR sort gate)

Previously resolved entries follow.
1) QVQLVESGGGLVQAGGSLRLSCAASGRTFLVNAMGRYREAPGKVREFVAAITSRSGRTNYADSVKGRFTISRDNAKNTLYLQMNRLQPEDTAVYYCNAEGYTVKYWYSRYDYWGQGTQVTVSS	high polyreactivity
2) HVQLVESGGGLVQAGGSLRLRCAASGFTFYYNAMGWSRQAPGKERELVAAISTRGGNTYYADSVKGRFTISRDYAKNTVYLQRNSLKPEATAVYYCARIIRREGRYDYWGHGTQVTVSS	high polyreactivity
3) QDQLVESGGGLVQAGGSLRLSCAASGFTFGTYAMGWYRQAPGKERELVAAISARGGSTYYADSVKGRFTISRDNAKNTVYLQMNSLKPEDTAVYYCAAYYGRHVTPPTGYDYWGQGTQVTVSS	high polyreactivity
4) QVQLVESVGGLVQAGGSLRLSSAASGRTSWYYAMGWYRQAPGKERELVATITRTTGSTYYADSVKGRFTISRDNAKNTVYLQMNSLKPEDTAVYYCDRLYYFNGDYWGLGTQVTVSS	high polyreactivity
5) QVQLVESGGGLVQAGGRLRLICAASGRTFTPYAMGWYRQAPGKERELVAAITRGGSTYYADSVKGRFTISRDNAKNTVYLHMNSLKPEDTAVYYCNALVSYYKLSSEYDYWGQGTQVTVSS	high polyreactivity

Continue with the sequence presented below.
Name the reported polyreactivity (PSR sort gate) value associated with the sequence "QVQLVESGGGLVQAGGSLRLSCAASGSIFLIYAMGWYRQAPGKERELVAAISSGGSTYYADSVKGGFTISRDNAKNTVYLQMNSLKPEDTAVYYCATYSTSVGYHLYYWGQGTQVTVSS"
low polyreactivity
